pIC50: −log10 of the molar value.
Header: pIC50 / Hepatocyte growth factor receptor (Homo sapiens) / multiple publications

c1ccc(-c2cn3c(Sc4ccc5ncccc5c4)nnc3s2)cc1: 6.00 to 7.00
CN1CCN(c2ccc(-c3cnc4c(c3)N(Cc3cc(Cl)ccc3Cl)CCN4C)cn2)CC1: < 4.00
Cn1ncc2ccc(-c3n[nH]c4c3Cc3sc(-c5ccc(C(=O)N6CCOCC6)c(F)c5)cc3-4)cc21: < 6.00
CCOC(=O)Nc1cccc(Cn2nc(-c3cccc(CNC(=O)CCNC=O)c3)ccc2=O)c1: 6.00 to 8.00

For each of the compounds below, note its pIC50.
1. CNCCOc1cc2nccc(Oc3c(F)cc(NC(=O)c4cnc(Cl)cc4OC4CC4)cc3F)c2cc1OC
2. O=C1CNc2ncc(-c3ccc(NS(=O)(=O)CCN4CCCC4)cc3)cc2N1Cc1cc(F)ccc1F
3. Cn1cc(C(=O)Nc2ccc(Oc3ccnc4cc(OCC(C)(C)O)c5c(c34)OCCO5)cc2)c(=O)n(-c2ccc(F)cc2)c1=O

["≥ 7.00", "5.00 to 6.00", "≥ 7.30"]

Take each entry in turn and give its pIC50.
1. CCOc1ccn(-c2ccc(F)cc2)c(=O)c1C(=O)Nc1ccc(Oc2ccnn3ccc(-c4ccncc4)c23)c(F)c1
2. Fc1ccc(F)c(CN2CCNc3ncc(-c4ccnc(N5CCOCC5)c4)cc32)c1Cl
3. CC(c1c(F)ccc(F)c1Cl)N1C(=O)CNc2ncc(I)cc21 (stereo not drawn)
4. Cn1cc(-c2nn3c(Cc4cc5cccnc5cc4F)nnc3s2)cn1
5. N#Cc1cccc2sc(-c3cc(-c4cnn(C5CCNCC5)c4)cnc3N)nc12

["> 7.40", "5.00 to 6.00", "< 4.00", "> 7.00", "6.00 to 7.00"]

Please state pIC50 for every compound in the list that follows.
1. Cc1ccc2nnc(Cc3ccc4ncc(-c5cnn(CCC#N)c5)cc4c3)n2n1
2. CN1CCN(c2cc(-c3cc4c(s3)Cc3c(-c5ccc6cnn(C)c6c5)n[nH]c3-4)ccn2)CC1
3. Nc1ncc(-c2cnn(C3CCNCC3)c2)cc1-c1nc2cc(Br)ccc2s1
4. COc1cc2nccc(Oc3cc(Cl)c(NC(=O)c4cn(C(C)C)c(=O)n(-c5ccc(F)cc5)c4=O)cc3F)c2c2c1OCCO2
5. Cn1cc(-c2cc(Oc3ccc(NC(=O)Nc4nnc(C(C)(C)C)s4)c(F)c3)ccn2)cn1
6. COc1ccc(Cl)c2cc(-c3cc(-c4ccc(C(=O)O)cc4)cnc3N)ncc12

1. > 7.00
2. 6.00 to 6.52
3. 6.00 to 7.00
4. 6.30 to 7.30
5. > 5.00
6. 6.00 to 7.00

For each of the compounds below, state pIC50.
1. COc1ccc(F)cc1C(C)Oc1cc(-c2c(C)nn(C)c2C)cnc1N (stereo not drawn)
2. Nc1ncc(-c2cnn(C3CCN(CC(=O)N4CCOCC4)CC3)c2)cc1-c1nc2ccccc2s1
3. O=C(O)c1cccc(-c2cnc3c(c2)N(Cc2ccccc2)C(=O)CN3)c1
4. Cn1ncc2ccc(-c3n[nH]c4c3Cc3sc(-c5ccc(CN6CCOCC6)nc5)cc3-4)cc21
5. CS(=O)(=O)c1cccc(-c2ccc3nnc(C(F)(F)c4ccc5nc(NC(=O)C6CC6)cn5n4)n3c2)c1
6. COc1ncc(F)cc1[C@@H](C)Oc1cc(-c2ccnn2C)cnc1N

[4.99, "≥ 7.00", "4.00 to 5.00", "< 6.00", "> 7.52", "< 4.75"]

List pIC50 for every entry below, keeping the order given.
1. COc1ccc(F)cc1[C@@H](C)Oc1cc(-c2c(C)nn(CCO)c2C)cnc1N
2. Fc1ccc(F)c(CN2CCNc3ncc(-c4ccc(N5CCOCC5)cc4)cc32)c1Cl

[5.35, "4.00 to 5.00"]

// batch mode: one pIC50 value per listed entry
1. CS(=O)(=O)Nc1ccc(F)c(C(=O)c2c[nH]c3ncc(-c4ccccc4)cc23)c1F
2. O=C(Nc1cn2nc(Cn3nnc4ccc(-c5cnn(CCO)c5)cc43)ccc2n1)C1CC1
3. O=C(NC1CCc2ccccc21)c1cnc2c(c1)N(Cc1cc(Cl)ccc1Cl)CCN2 (stereo not drawn)
4. CCOC(=O)Nc1cccc(Cn2nc(-c3ccc(-c4nnn[nH]4)cc3)ccc2=O)c1
5. CNCc1nn2c(Cc3ccc4ncc(-c5cnn(C)c5)cc4c3)nnc2s1

["≥ 5.00", "7.00 to 7.22", "4.00 to 5.00", "6.00 to 8.00", "> 7.00"]

Batch lookup, pIC50 per entry.
1. O=c1sc2ccc(C(F)(F)F)cc2n1Cc1cccc(-c2ncc(OCCN3CCOCC3)cn2)c1
2. CNc1ccn(-c2ccc(F)cc2)c(=O)c1C(=O)Nc1cc(F)c(Oc2ccnc(-c3cnn(C)c3)c2)cc1F

1: 6.00 to 8.00; 2: ≥ 7.00

###

Literature-derived IC50 for Hepatocyte growth factor receptor (Homo sapiens, UniProt P08581) follows.

Below, 2 molecules whose answers are already recorded.
Cn1ncc2ccc(-c3n[nH]c4c3Cc3sc(-c5cnc(C(=O)N6CCOCC6)nc5)cc3-4)cc21: > 1000 nM
CNCCOc1cc2nccc(Oc3c(F)cc(NC(=O)c4cc(F)c(F)cc4OC)cc3F)c2cc1OC: ≤ 100 nM

Value sought for every listed molecule: IC50.
1. Cn1ncc2ccc(-c3n[nH]c4c3Cc3sc(-c5ccc(CN6CCOCC6)cn5)cc3-4)cc21
2. O=S(=O)(c1ccc(-c2ccc3nnc(Cc4ccc5ncccc5c4)n3n2)cc1)N1CCOCC1
3. CCOC(=O)Nc1cccc(Cn2nc(-c3cccc(CNC(=O)CN4CCN(C)CC4)c3)ccc2=O)c1
4. O=c1ccc(-c2cc(F)cc(F)c2)nn1Cc1ccc2[nH]ncc2c1
5. C[C@@H](Oc1cc(-c2cnn(C3CCC4(CC3)CNC4)c2)cnc1N)c1c(Cl)ccc(F)c1Cl
6. Cc1[nH]ncc1-c1cnc(N)c(OC(C)c2cc(F)ccc2F)c1 (centres unmarked)
7. CNCCOc1cc2nccc(Oc3cc(F)c(NC(=O)c4c(OC)ccnc4F)cc3F)c2cc1OC

1: > 1000 nM; 2: < 100 nM; 3: 10 to 1000 nM; 4: 10 to 1000 nM; 5: 4.8 nM; 6: 5610 nM; 7: ≤ 100 nM

Return reported IC50 values for all items listed beneath this line.
1. CCOC(=O)Nc1cccc(Cn2nc(-c3cccc(OCCCO)c3)ccc2=O)c1
2. CCOc1cc2nccc(Oc3ccc(NC(=O)c4c(OC)ccn(-c5ccc(F)cc5)c4=O)c(Cl)c3)c2c2c1OCCO2

["10 to 1000 nM", "≤ 50 nM"]

###

Compiled record: IC50 values for Hepatocyte growth factor receptor (Homo sapiens) across several sources.

Use these answered entries as a reference point.
CCC(=O)Nc1ccc(-c2ccnc(Nc3cccc(C)c3)n2)s1: 1000 to 5000 nM
CS(=O)(=O)Nc1cccc(-c2cnc3[nH]cc(C(=O)c4cc(O)ccc4F)c3c2)c1: ≤ 10000 nM
CN1CCN(CCCOC(=O)Nc2cccc(Cn3nc(-c4cc(F)c(F)c(F)c4)ccc3=O)c2)CC1: 10 to 1000 nM

Hi! Can you tell me IC50 for each of these compounds?
1. C[C@H](c1c(Cl)ccc(F)c1Cl)c1c[nH]c2ncc(-c3cnn(CCO)c3)cc12
2. Cc1ccc2nnc(Cc3ccc4ncc(-c5cnn(CCO)c5)cc4c3)n2n1
3. CC(c1cccc(NC(=O)OCCCN(C)C)c1)N1N=C(c2ccc(F)c(F)c2)CSC1=O (stereo not drawn)

1. ≤ 100 nM
2. < 100 nM
3. 10 to 1000 nM

I'm hoping you can list IC50 for every compound here, please.
1. CNCCOc1cc2nccc(Oc3c(F)cc(NC(=O)c4cnccc4OC)cc3Cl)c2cc1OC
2. COCc1nc(-c2ccc3nnc(Sc4ccc5nc(NC(=O)C6CC6)cn5n4)n3c2)no1
3. CC(=O)N1CC(n2cc(-c3cnc4ccc(Cc5nnc6ccc(C)nn56)cc4c3)cn2)C1
4. O=C(c1ccccc1)N1CCNc2ncc(-c3cccnc3)cc21
5. Cc1ccc2nc(-c3cc(-c4cnn(C5CCNCC5)c4)cnc3N)sc2c1
6. C[C@@H](Oc1c(N)ncc2c1ccn2C)c1c(Cl)ccc(F)c1Cl
7. Nc1ncnc2c1c(-c1cc(OC[C@@H]3CCCO3)ccc1F)cn2[C@H]1C[C@@H](N2CCN(C(=O)CO)CC2)C1
8. CCN1CC(Cn2cc(-c3cnc4ccc(Sc5nnc6ccc(C)nn56)cc4c3)cn2)C1

["≤ 100 nM", "60 to 100 nM", "< 100 nM", "10000 to 100000 nM", "100 to 1000 nM", "5000 to 20000 nM", "> 10000 nM", "< 100 nM"]

###

Several reports have described pIC50 for Hepatocyte growth factor receptor (Homo sapiens); a selection of those results is presented here.
pIC50: −log10 of the molar value.

Example entries and their recorded answers appear below.
O=S(=O)(c1ccccc1Cl)N1CCNc2ncc(I)cc21: 4.00 to 5.00
CN(C)CCCOc1cnc(-c2cccc(Cn3c(=O)sc4ccc(C(F)(F)F)cc43)c2)nc1: 6.00 to 8.00
CC(=O)Nc1ccc(-c2ccc3nnc(Cc4ccc5ncccc5c4)n3n2)cc1: > 7.00

Below is a list of compounds. For each, state its recorded pIC50.
1. CCOC(=O)c1ccc(-c2cnc3c(c2)N(Cc2ccccc2)C(=O)CN3)cn1
2. CN(C)CCn1cc(-c2cnc3c(c2)N(Cc2c(F)ccc(F)c2Cl)CCN3)cn1

1: 4.00 to 5.00; 2: 5.00 to 6.00

Report pIC50 for every entry below.
1. COc1cc2nccc(Oc3c(F)cc(NC(=O)c4cnccc4OC)cc3F)c2cc1O[C@@H](C)CO
2. CNCCOc1cc2nccc(Oc3ccc(NC(=O)c4cnc(N)cc4OC)c(F)c3F)c2cc1OC

1: ≥ 7.00; 2: ≥ 7.00

Fill in the recorded pIC50 for this compound, with Hepatocyte growth factor receptor (Homo sapiens) as test system: CC(=O)Nc1cc(Oc2ccc(NC(=O)c3c4n(n(-c5ccccc5)c3=O)CCOC4)nc2)ccn1
7.27
